# study-system: T1, TolC trimer (E. coli, UniProt P02930 23-493)
# T1 sequence (looked up): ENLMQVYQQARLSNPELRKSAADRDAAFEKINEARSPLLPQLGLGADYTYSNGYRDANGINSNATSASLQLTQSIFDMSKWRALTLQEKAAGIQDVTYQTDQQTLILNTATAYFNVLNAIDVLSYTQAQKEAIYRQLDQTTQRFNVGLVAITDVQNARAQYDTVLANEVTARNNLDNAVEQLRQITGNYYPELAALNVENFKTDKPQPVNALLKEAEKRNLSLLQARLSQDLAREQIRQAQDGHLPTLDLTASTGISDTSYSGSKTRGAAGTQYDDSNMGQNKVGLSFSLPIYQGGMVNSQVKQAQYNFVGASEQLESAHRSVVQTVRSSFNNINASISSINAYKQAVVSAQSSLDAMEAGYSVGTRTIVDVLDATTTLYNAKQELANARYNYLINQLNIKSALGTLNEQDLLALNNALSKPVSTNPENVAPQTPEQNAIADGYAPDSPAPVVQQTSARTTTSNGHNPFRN
# assay-comment: occlusion of TolC ion channels in planar bilayer lipid membranes
pKd: −log10 of the molar value.
observation-type: pKd

Given item colicin E1 T-domain peptide T57–140 (domain or fragment) WSTAQLKKTQAEQAARAKAAAEAQAKAKANRDALTQRLKDIVNEALRHNASRTPSATELAHANNAAMQAEDERLRLAKAEEKAR , the value recorded as its pKd is ~7.00
